B1: library; numbered along this chain (parent)
chain: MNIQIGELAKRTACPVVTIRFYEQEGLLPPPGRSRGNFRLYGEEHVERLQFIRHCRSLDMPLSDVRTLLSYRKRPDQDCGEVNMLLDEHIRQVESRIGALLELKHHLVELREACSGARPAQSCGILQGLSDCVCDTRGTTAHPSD

# Variants of: B1
# testName: sfGFP reporter fluorescence (15 h) (µM FITC); higher = stronger transcriptional activation
# experimentalConditions: library round: Round 0; ligand: 30 µM Zn
Rule: met for sfGFP reporter fluorescence not less than 0.7, not met for anything less.

>  <sequenceChain>
MNIQIGELAKRTACPVVTIRFYEQEGLLPPPGRSRGNFRLYGEEHVERLQFIRHCRSLDMPLSDVRTLLSYRKRPDQDCGEVNMLLDEHIRQVESRIGALLELKHHLVLLREACSGARPAQSCGILQGLSDCVCDTRGTTAHPSD [E109L]

>  <classification>
met

$$$$
>  <sequenceChain>
MNIQIGELAKRTACPVVTIRFYEQEGLLPPPGRSRGNFRLYGEEHVERLQFIRHCRSLDMPLSDVRTLLSYRKRPDQDCGEVNMLLDEHIRQVESRIGALLELKHHLVELREAESGARPAQSCGILQGLSDCVCDTRGTTAHPSD [C114E]

>  <classification>
not met

$$$$
>  <sequenceChain>
MNIQIGELAKRTACPVVTIRFYEQEGLLPPPGRSRGNFRLYGEEHVERLQFIRHCRSLDLNLSDVRTLLSYRKRPDQDCGEVNMLLDEHIRQVESRIGALLELKHHCVELREACSGARPAQSCGILQMLSDCVCDTRGTTAHPSD [M60L P61N L107C G128M]

>  <classification>
met

$$$$
>  <sequenceChain>
MNIQIGELAKRTACPVVTIRFYEQEGLLPPPGRSRGNFRLYGEEHVERLQFIRHCRSLDMPLSDVRTLLSYRKRPDQDCGEVNMLLDEHIRQVESRDGALLELKHHLVELREACSGARPAQSCGILQGLSDCVCDTRGTTAHPSD [I97D]

>  <classification>
not met

$$$$
>  <sequenceChain>
MNIQIGELAKRTACPVVTIRFYEQEGLLPPPGRSRGNFRLYGEEHVERLQFIRHCRSLDMPLSDVRTLLSYRKRPDQDCGEVNMLLDEHIRQVESRIGALLELKHHTVELREACSGARPAQSCGILQGLSDCVCDTRGTTAHPSD [L107T]

>  <classification>
met

$$$$
>  <sequenceChain>
MNIQIGELAKRTACPVVTIRFYEQEGLLPPPGRSRGNFRLYGEEHVERLQFIRHCRSLDMNLSDVRTLLSYRKRPDQDCGEVNMLLDEHIRQVESRIGALLELKHHLVELREACSGARPAQSCGILQMLSDCVCDTRGTTAHPSD [P61N G128M]

>  <classification>
met

$$$$
>  <sequenceChain>
MNIQIGELAKRTACPVVTIRFYEQEGLLPPPGRSRGNFRLYGEEHVERLQFIRHCRSLDMKLSDVRTLLSYRKRPDQDCGEVNMLLDEHIRQVESRIGALLELKHHLVELREACSGARPAQSCGILQGLSDCVCDTRGTTAHPSD [P61K]

>  <classification>
met

$$$$
>  <sequenceChain>
MNIQIGELAKRTACPVVTIRFYEQEGLLPPPGRSRGNFRLYGEEHVERLQFIRHCRSLDMPLSDVRTLLSYRKRPDQDDGEVNMLLDEHIRQVESRIGALLELKHHLVELREACSGARPAQSCGILQGLSDCVCDTRGTTAHPSD [C79D]

>  <classification>
not met

$$$$
>  <sequenceChain>
MNIQIGELAKRTACPVVTIRFYEQEGLLPPPGRSRGNFRLYGEEHVERLQFIRHCRSEDMPLSDVRTLLSYRKRPDQDCGEVNMLLDEHIRQVESRIGALLELKHHLVELREACSGARPAQSCGILQGLSDCVCDTRGTTAHPSD [L58E]

>  <classification>
not met

$$$$
>  <sequenceChain>
MNIQIGELAKRTACPVVTIRFYEQEGLLPPPGRSRGNFRLYGEEHVERLQFIRHCRSLDMPLSDVRTLLSYRKRPDQDCGEVNMLLDEHIRQVESRIGALLELKHHAVELREACSGARPAQSCGILQGLSDCVCDTRGTTAHPSD [L107A]

>  <classification>
met

$$$$
>  <sequenceChain>
MNIQIGELAKRTACPVVTIRFYEQEGLLPPPGRSRGNFRLYGEEHVERLQFIRHCRSLDMNLSKVRTLLSYRKRPDQDCGEVNMLLDEHIRQVESRIGALLELVHHLVELREACSGARPAQSCGILQILSDCVCDTRGTTAHPSD [P61N D64K K104V G128I]

>  <classification>
met

$$$$
>  <sequenceChain>
MNIQIGVLAKRTACPVVTIRFYEQEGLLPPPGRSRGNFRLYGEEHVERLQFIRHCRSLDMPLSDVRTLLSYRKRPDQDCGEVNMLLDEHIRQVESRIGALLELKHHLVELREACSGARPAQSCGILQGLSDCVCDTRGTTAHPSD [E7V]

>  <classification>
met

$$$$
>  <sequenceChain>
MNIQIGELAKRTACPVVTIRFYEQEGLLPPPGRSRGNFRLYGEEHVERLQFIRHCRSLDMPLSDVRTLLSYRKRPDQDCGEVNMLLDEHIRQVESRIGALLELCHHLVELREACSGARPAQSCGILQGLSDCVCDTRGTTAHPSD [K104C]

>  <classification>
met

$$$$
>  <sequenceChain>
MNIQIGELAKRTACPVVTIRFYEQEGLLPPPGRSRGNFRLYGEEHVERLQFIRHCRSDDMPLSDVRTLLSYRKRPDQDCGEVNMLLDEHIRQVESRIGALLELKHHLVELREACSGARPAQSCGILQGLSDCVCDTRGTTAHPSD [L58D]

>  <classification>
not met

$$$$
>  <sequenceChain>
MNIQIGELAKRTACPVVTIRFYEQEGLLPPPGRSRGNFRLYGEEHVERLQFIRHCRSLDMPLSDVRTLLSYRKRPDQDCGEVNMLLDEHIRQVESRIGALLELKHHLVEYREACSGARPAQSCGILQGLSDCVCDTRGTTAHPSD [L110Y]

>  <classification>
not met

$$$$
>  <sequenceChain>
MNIQIGELAKRTACPVVTIRFYEQEGLLPPPGRSRGNFRLYGEEHVERLQFIRHCRSLDMPLSDVRTLLSYRKRPDQDCGEINMLLDEHIRQVESRIGALLELKHHLVELREACSGARPAQSCGILQGLSDCVCDTRGTTAHPSD [V82I]

>  <classification>
not met

$$$$
>  <sequenceChain>
MNIQIGELAKRTACPVVTIRHYEQEGLLPPPGRSRGNFRLYGEEHVERLQFIRHCRSLDMPLSDVRTLLSYRKRPDQDCGEVNMLLDEHIRQVESRIGALLELKHHLVELREACSGARPAQSCGILQGLSDCVCDTRGTTAHPSD [F21H]

>  <classification>
not met

$$$$
>  <sequenceChain>
MNIQIGELAKRTACPVVTIRFYEQEGLLPPPGRSRGNFRLYGEEHVERLQFIRHCRSLDMPLSDVRTLLSYRKRPDQDCGEVNMLLDEHIRQVESRIGALLELKHHLVELREACSGARPAQSCGILQGLSDCVFDTRGTTAHPSD [C134F]

>  <classification>
met

$$$$
>  <sequenceChain>
MNIQIGELAKRTACPVVTIRFYEQEGLLPPPGQSRGNFRLYGEEHVERLQFIRHCRSLDMPLSDVRTLLSYRKRPDQDCGEVNMLLDEHIRQVESRIGALLELKHHLVELREACSGARPAQSCGILQGLSDCVCDTRGTTAHPSD [R33Q]

>  <classification>
not met

$$$$
>  <sequenceChain>
MNPQIGELAKRTACPVVTIRFYEQEGLLPPPGRSRGNFRLYGEEHVERLQFIRHCRSLDMPLSDVRTLLSYRKRPDQDCGEVNMLLDEHIRQVESRIGALLELKHHLVELREACSGARPAQSCGILQGLSDCVCDTRGTTAHPSD [I3P]

>  <classification>
not met

$$$$
>  <sequenceChain>
MNIQIGELAKRTACPVVTIRFYEQEGLLPPPGRSRGNFRLYGEEHVERLQFIRHCRSLDMPLSDVRTLLSYRKRPDQDCGEVNMLLDEHIRQVESRIGALLELKHHLVELREACSGARPAQSCGILQGLSYCVCDTRGTTAHPSD [D131Y]

>  <classification>
met

$$$$
>  <sequenceChain>
MNIQIGELAKRTACPVVTIRFYEQEGLLPPPGRSRGNFRLYGEEHVERLQFIRHCRSLDMPLSDVRTLLSYRKRPDQDCGEVNMLLDEHIRQVESRIGALLELKHHLVELREACSGARPAQSCGILQGLSDCVRDTRGTTAHPSD [C134R]

>  <classification>
met

$$$$
